# MIC values compiled below
Tested on: Bacillus anthracis, Sterne 34F2
EXPERIMENT_DESCRIPTION: microbe, parasite or virus in culture
Assay type: cell-based
PROTOCOL_CONDITIONS: STERNE34F2, read-out: MIC B.a.
Counter-ions that a name gives are not always drawn.
REPORTED_METRIC: MIC (µg/mL)

INSERT INTO results (compound, result_qualifier, numeric_result) VALUES
  ('CN[C@@H]1[C@H](O)[C@H](NC)[C@H]2O[C@]3(O)[C@H](O[C@@H]2[C@H]1O)O[C@H](C)C[C@@]3(O)CNCCc1cnccn1', '=', 100),
  ('CN[C@@H]1[C@H](O)[C@H](NC)[C@H]2O[C@]3(O)[C@H](O[C@@H]2[C@H]1O)O[C@H](C)C[C@@]3(O)CNCC(C)c1ccccc1 (some centres unmarked)', '=', 12.5),
  ('CN[C@@H]1[C@H](O)[C@H](NC)[C@H]2O[C@]3(O)[C@H](O[C@@H]2[C@H]1O)O[C@H](C)C[C@]3(O)CNCc1ccc(OC(F)(F)F)cc1 (stereo in doubt) [compound 26, Trihydrochloride]', '≥', 200),
  ('CN[C@@H]1[C@H](O)[C@H](NC)[C@H]2O[C@]3(O)[C@H](O[C@@H]2[C@H]1O)O[C@H](C)C[C@@]3(O)CNCCc1ccc[nH]1', '=', 25),
  ('CN[C@@H]1[C@H](O)[C@H](NC)[C@H]2O[C@]3(O)[C@H](O[C@@H]2[C@H]1O)O[C@H](C)C[C@@]3(O)CNCCc1cccnc1', '=', 50);

---

System: Legionella pneumophila (ATCC 33153)
EXPERIMENT_DESCRIPTION: microbe, parasite or virus in culture
Format: cell-based
PROTOCOL_CONDITIONS: ATCC33153, 72 h, read-out: Zone of inhibition L.p.
Counter-ions that a name gives are not always drawn.
Readings of zone of inhibition at 4 µg/disc for the listed compounds
REPORTED_METRIC: zone of inhibition at 4 µg/disc

INSERT INTO results (compound, reported_metric, result) VALUES
  ('CN[C@@H]1[C@H](O)[C@H](NC)[C@H]2O[C@]3(O)[C@H](O[C@@H]2[C@H]1O)O[C@H](C)C[C@@]3(O)CNCc1ccncc1', 'zone of inhibition at 4 µg/disc', '28 mm'),
  ('CN[C@@H]1[C@H](O)[C@H](NC)[C@H]2O[C@]3(O)[C@H](O[C@@H]2[C@H]1O)O[C@H](C)C[C@@]3(O)CNCc1ccccc1 [compound 1, Trihydrochloride]', 'zone of inhibition at 4 µg/disc', '36 to 40 mm'),
  ('CCOc1ccc(CNC[C@]2(O)C[C@@H](C)O[C@H]3O[C@@H]4[C@@H](O)[C@H](NC)[C@H](O)[C@H](NC)[C@H]4O[C@]32O)cc1 [compound 4, Trihydrochloride]', 'zone of inhibition at 4 µg/disc', '18 to 33 mm');

---

As shown below, each of these molecules has a reported MIC value.
System: Staphylococcus aureus (ATCC 29213)
EXPERIMENT_DESCRIPTION: MIC determination, microbroth dilution
Type: cell-based
PROTOCOL_CONDITIONS: ATCC29213; Staphylococcus aureus (ATCC 29213); read-out: MIC S.a.
Counter-ions that a name gives are not always drawn.
REPORTED_METRIC: MIC (µg/mL)

INSERT INTO measurements (molecule, unit_label, result_qualifier, numeric_result) VALUES
  ('CN[C@@H]1[C@H](O)[C@H](NC)[C@H]2O[C@]3(O)[C@H](O[C@@H]2[C@H]1O)O[C@H](C)C[C@@]3(O)CNCc1ccc(S(C)(=O)=O)cc1 [compound 69, trihydrobromide]', 'µg/mL', '>', 200),
  ('CN[C@@H]1[C@H](O)[C@H](NC)[C@H]2O[C@]3(O)[C@H](O[C@@H]2[C@H]1O)O[C@H](C)C[C@@]3(O)CNCc1ccco1 [compound 8, Trihydrochloride]', 'µg/mL', '=', 50),
  ('CN[C@@H]1[C@H](O)[C@H](NC)[C@H]2O[C@]3(O)[C@H](O[C@@H]2[C@H]1O)O[C@H](C)C[C@@]3(O)CNCCc1ccc(OC)cc1 [compound 53, Trihydrochloride]', 'µg/mL', '=', 25),
  ('CCc1ccc(CNC[C@]2(O)C[C@@H](C)O[C@H]3O[C@@H]4[C@@H](O)[C@H](NC)[C@H](O)[C@H](NC)[C@H]4O[C@]32O)cc1 [compound 3, Trihydrochloride]', 'µg/mL', '=', 50),
  ('CN[C@@H]1[C@H](O)[C@H](NC)[C@H]2O[C@]3(O)[C@H](O[C@@H]2[C@H]1O)O[C@H](C)C[C@@]3(O)CNCc1ccc(SC)cc1 [compound 68, trihydrobromide]', 'µg/mL', '=', 25);

---

Test system: Burkholderia cepacia (ATCC 25416)
EXPERIMENT_DESCRIPTION: MIC determination, microbroth dilution
Assay type: cell-based
PROTOCOL_CONDITIONS: Burkholderia cepacia, ATCC25416, read-out: MIC B.c., Burkholderia cepacia (ATCC 25416)
Where a name gives a salt, the structure may show the parent alone.
REPORTED_METRIC: MIC

INSERT INTO results (compound, reported_metric, result) VALUES
  ('CN[C@@H]1[C@H](O)[C@H](NC)[C@H]2O[C@]3(O)[C@H](O[C@@H]2[C@H]1O)O[C@H](C)C[C@@]3(O)CNCCc1ccc(C)cc1 [compound 32, Trihydrochloride]', 'MIC', '> 200 µg/mL'),
  ('CN[C@@H]1[C@H](O)[C@H](NC)[C@H]2O[C@]3(O)[C@H](O[C@@H]2[C@H]1O)O[C@H](C)C[C@@]3(O)CNCc1ccc(OC(F)(F)F)cc1 [compound 11, Trihydrochloride]', 'MIC', '> 200 µg/mL'),
  ('CN[C@@H]1[C@H](O)[C@H](NC)[C@H]2O[C@]3(O)[C@H](O[C@@H]2[C@H]1O)O[C@H](C)C[C@@]3(O)CNCc1ccc(S(C)(=O)=O)cc1 [compound 69, trihydrobromide]', 'MIC', '> 200 µg/mL'),
  ('CN[C@@H]1[C@H](O)[C@H](NC)[C@H]2O[C@]3(O)[C@H](O[C@@H]2[C@H]1O)O[C@H](C)C[C@@]3(O)CNc1ccccc1 [compound 30, Trihydrochloride]', 'MIC', '> 200 µg/mL'),
  ('CN[C@@H]1[C@H](O)[C@H](NC)[C@H]2O[C@]3(O)[C@H](O[C@@H]2[C@H]1O)O[C@H](C)C[C@@]3(O)CNCCc1ccc(OC)cc1 [compound 53, Trihydrochloride]', 'MIC', '> 200 µg/mL');

---

Entries with reported MIC on Proteus vulgaris (ATCC 33420)
Counter-ions that a name gives are not always drawn.
REPORTED_METRIC: MIC

INSERT INTO results (compound, reported_metric, result) VALUES
  ('CN[C@@H]1[C@H](O)[C@H](NC)[C@H]2O[C@]3(O)[C@H](O[C@@H]2[C@H]1O)O[C@H](C)C[C@@]3(O)CNCc1nccs1', 'MIC', '> 200 µg/mL'),
  ('CN[C@@H]1[C@H](O)[C@H](NC)[C@H]2O[C@]3(O)[C@H](O[C@@H]2[C@H]1O)O[C@H](C)C[C@@]3(O)CNc1ccccc1 [compound 30, Trihydrochloride]', 'MIC', '> 200 µg/mL'),
  ('CN[C@@H]1[C@H](O)[C@H](NC)[C@H]2O[C@]3(O)[C@H](O[C@@H]2[C@H]1O)O[C@H](C)C[C@@]3(O)CNCc1ccccc1OC(F)(F)F [compound 10, Trihydrochloride]', 'MIC', '> 200 µg/mL'),
  ('CN[C@@H]1[C@H](O)[C@H](NC)[C@H]2O[C@]3(O)[C@H](O[C@@H]2[C@H]1O)O[C@H](C)C[C@@]3(O)CNCc1ccc(OC(F)(F)F)cc1 [compound 11, Trihydrochloride]', 'MIC', '> 200 µg/mL'),
  ('CN[C@@H]1[C@H](O)[C@H](NC)[C@H]2O[C@]3(O)[C@H](O[C@@H]2[C@H]1O)O[C@H](C)C[C@@]3(O)CNCc1ccccc1F [compound 14, Trihydrochloride]', 'MIC', '100 µg/mL');

---

Tested on: Bacillus anthracis, Sterne 34F2
EXPERIMENT_DESCRIPTION: microbe, parasite or virus in culture
Format: cell-based
PROTOCOL_CONDITIONS: STERNE34F2, read-out: MIC B.a.
Structures can show the parent of a compound that is named as a salt.
REPORTED_METRIC: MIC (µg/mL)

INSERT INTO results (compound, target_desc, reported_metric, unit_label, result_qualifier, numeric_result) VALUES
  ('CN[C@@H]1[C@H](O)[C@H](NC)[C@H]2O[C@]3(O)[C@H](O[C@@H]2[C@H]1O)O[C@H](C)C[C@]3(O)CNCCc1ccccc1 [compound 27, Trihydrochloride]', 'Bacillus anthracis, Sterne 34F2', 'MIC', 'µg/mL', '>', 200),
  ('CN[C@@H]1[C@H](O)[C@H](NC)[C@H]2O[C@]3(O)[C@H](O[C@@H]2[C@H]1O)O[C@H](C)C[C@@]3(O)CNCCc1ccc(F)cc1 [compound 33, Trihydrochloride]', 'Bacillus anthracis, Sterne 34F2', 'MIC', 'µg/mL', '=', 12.5),
  ('CN[C@@H]1[C@H](O)[C@H](NC)C2O[C@]3(O)C(OC2[C@H]1O)O[C@H](C)C[C@@]3(O)CNCc1ccc2ccccc2c1 (some centres unmarked) [compound 39]', 'Bacillus anthracis, Sterne 34F2', 'MIC', 'µg/mL', '>', 200),
  ('CCOc1ccc(CNC[C@]2(O)C[C@@H](C)O[C@H]3O[C@@H]4[C@@H](O)[C@H](NC)[C@H](O)[C@H](NC)[C@H]4O[C@]32O)cc1 [compound 4, Trihydrochloride]', 'Bacillus anthracis, Sterne 34F2', 'MIC', 'µg/mL', '=', 100);
